# SYSTEM_TESTED: SARS-CoV-2 Delta (B.1.617.2) RBD (SARS-CoV-2 Delta (B.1.617.2), L452R)
# MEASUREMENT_DESCRIPTION: BLI
pKd: −log10 of the molar value.
OBSERVABLE: pKd

See these solved cases before continuing.
BINDER | VAL
C807 (antibody, V domains shown) VH: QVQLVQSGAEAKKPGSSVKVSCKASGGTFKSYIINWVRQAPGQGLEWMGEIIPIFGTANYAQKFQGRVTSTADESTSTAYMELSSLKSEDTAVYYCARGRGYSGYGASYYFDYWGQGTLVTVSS VL: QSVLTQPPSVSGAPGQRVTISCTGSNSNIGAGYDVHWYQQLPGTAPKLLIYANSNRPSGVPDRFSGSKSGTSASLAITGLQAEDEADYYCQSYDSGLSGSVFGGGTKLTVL | > 8.68
BD56-597 (antibody, V domains shown) VH: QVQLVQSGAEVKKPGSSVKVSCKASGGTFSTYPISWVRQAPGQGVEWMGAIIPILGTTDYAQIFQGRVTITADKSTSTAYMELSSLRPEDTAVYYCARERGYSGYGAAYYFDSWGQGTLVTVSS VL: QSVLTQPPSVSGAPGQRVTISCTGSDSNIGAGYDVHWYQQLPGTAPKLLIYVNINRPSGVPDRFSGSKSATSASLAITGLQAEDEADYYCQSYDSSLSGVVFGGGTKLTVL | > 8.68

For the binder BD56-104 (antibody, V domains shown) VH: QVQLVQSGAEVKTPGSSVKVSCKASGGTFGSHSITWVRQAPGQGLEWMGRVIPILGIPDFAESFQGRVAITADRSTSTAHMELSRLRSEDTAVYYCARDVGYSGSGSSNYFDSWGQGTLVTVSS VL: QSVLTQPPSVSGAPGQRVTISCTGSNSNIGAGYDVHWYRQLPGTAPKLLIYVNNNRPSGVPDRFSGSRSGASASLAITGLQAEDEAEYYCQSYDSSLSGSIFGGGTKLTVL , report pKd. > 8.68
